target: galectin-3 (Homo sapiens); construct: made in house; test: competitive fluorescence polarization assay, galectin-3; details: Kd and SEM from 3–6 single point measurements, > values estimated, no apparent binding at highest concentration, read-out: Dissociation constants, Galectin-3
observable: Kd (µM)

compound="OC[C@H]1O[C@@H](Cn2cc(-c3ccc(F)cc3)nn2)[C@H](O)[C@@H](n2cc(-c3ccccc3)nn2)[C@H]1O [Compound 24a]" observable=Kd value_observed=200
compound="OC[C@H]1O[C@@H](c2cn(-c3ccc4c(c3)CCC4)nn2)[C@H](O)[C@@H](O)[C@H]1O [Compound 1u]" observable=Kd value_observed=1400
compound="OC[C@H]1O[C@@H](c2cn(-c3ccc(Cl)c(Cl)c3)nn2)[C@H](O)[C@@H](O)[C@H]1O [Compound 1p]" observable=Kd value_observed=660
compound="OC[C@H]1O[C@@H](c2cn(-c3ccc(C(F)(F)F)cc3)nn2)[C@H](O)[C@@H](O)[C@H]1O [Compound 1g]" observable=Kd value_observed=1200
compound="OC[C@H]1O[C@@H](c2cn(-c3nccs3)nn2)[C@H](O)[C@@H](O)[C@H]1O [Compound 1s]" observable=Kd value_observed=910

P. OC[C@H]1O[C@@H](c2cn(-c3ccc(Cl)cn3)nn2)[C@H](O)[C@@H](O)[C@H]1O [Compound 1r]
Q. CC(=O)c1ccc(-n2cc([C@@H]3O[C@H](CO)[C@H](O)[C@H](O)[C@H]3O)nn2)cc1 [Compound 1x]
R. OC[C@H]1O[C@@H](c2cn(-c3ccccn3)nn2)[C@H](O)[C@@H](n2cc(-c3ccccc3)nn2)[C@H]1O [Compound 16b]
S. OC[C@H]1O[C@@H](Cn2cc(-c3cc(F)c(F)c(F)c3)nn2)[C@H](O)[C@@H](n2cc(-c3ccccc3)nn2)[C@H]1O [Compound 24d]
Order by Kd, ascending. A ranking is expressed here by listing the labels in the requested order. R, S, P, Q
(R: 34 µM, S: 91 µM, P: 490 µM, Q: 1200 µM)

====

Molecular target: galectin-4N (Homo sapiens, UniProt P56470)
Sequence (P56470 19-150 limits assumed): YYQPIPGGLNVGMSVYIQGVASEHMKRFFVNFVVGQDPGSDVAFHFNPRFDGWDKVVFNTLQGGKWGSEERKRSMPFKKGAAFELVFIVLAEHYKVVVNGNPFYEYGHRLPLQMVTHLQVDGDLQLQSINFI
pKd: −log10 of the molar value.
observable: pKd

Take a look at these entries with their results.
molecule="OC[C@H]1O[C@@H](Cn2cc(-c3cc(F)c(F)c(F)c3)nn2)[C@H](O)[C@@H](n2cc(-c3ccccc3)nn2)[C@H]1O [Compound 24d]" test_target="galectin-4N (Homo sapiens, UniProt P56470)" value_observed=3.89
molecule="OC[C@H]1O[C@@H](Cn2cc(-c3ccccc3)nn2)[C@H](O)[C@@H](n2cc(-c3ccccc3)nn2)[C@H]1O [Compound 24c]" test_target="galectin-4N (Homo sapiens, UniProt P56470)" value_observed=3.54

1. OC[C@H]1O[C@@H](c2cn(-c3ccccc3F)nn2)[C@H](O)[C@@H](n2cc(-c3ccccc3)nn2)[C@H]1O [Compound 16a]
2. OC[C@H]1O[C@@H](c2cn(-c3ccccn3)nn2)[C@H](O)[C@@H](n2cc(-c3ccccc3)nn2)[C@H]1O [Compound 16b]
Compare 1 and 2 and name the one whose reported pKd is smaller. Label of pick, please. 2

I. OC[C@H]1O[C@@H](Cn2cc(-c3ccc(F)cc3)nn2)[C@H](O)[C@@H](n2cc(-c3ccccc3)nn2)[C@H]1O [Compound 24a]
II. OC[C@H]1O[C@@H](Cn2cc(-c3ccc(C(F)(F)F)cc3)nn2)[C@H](O)[C@@H](n2cc(-c3ccccc3)nn2)[C@H]1O [Compound 24b]
Compare I and II and name the one whose reported pKd is smaller. Label of pick, please. II

====

target: galectin-1 (Homo sapiens); construct: made in house; experiment: competitive fluorescence polarization assay, galectin-1; format: binding; conditions: fluorescence polarization; Kd and SEM from 3–6 single point measurements; read-out: Dissociation constants, Galectin-1
Sequence (P09382 whole entry): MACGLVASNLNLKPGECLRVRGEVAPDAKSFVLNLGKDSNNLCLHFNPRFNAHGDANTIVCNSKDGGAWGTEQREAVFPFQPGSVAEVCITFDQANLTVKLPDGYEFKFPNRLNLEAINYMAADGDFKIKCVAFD
pKd: −log10 of the molar value.
observable: pKd

Take a look at these entries with their results.
compound="OC[C@H]1O[C@@H](Cn2cc(-c3ccc(C(F)(F)F)cc3)nn2)[C@H](O)[C@@H](n2cc(-c3ccccc3)nn2)[C@H]1O [Compound 24b]" observable=pKd value_observed=3.36
compound=OC[C@H]1O[C@@H](c2cn(-c3ccc(Br)cc3)nn2)[C@H](O)[C@@H](O)[C@H]1O observable=pKd value_observed=3.85
compound=OC[C@H]1O[C@@H](c2cn(-c3ccc(I)cc3)nn2)[C@H](O)[C@@H](O)[C@H]1O observable=pKd value_observed=3.34
compound=OC[C@H]1O[C@@H](c2cn(-c3c(F)cccc3F)nn2)[C@H](O)[C@@H](O)[C@H]1O observable=pKd value_observed=2.89
compound="OC[C@H]1O[C@@H](Cn2cc(-c3ccc(F)cc3)nn2)[C@H](O)[C@@H](n2cc(-c3ccccc3)nn2)[C@H]1O [Compound 24a]" observable=pKd value_observed=3.66
compound=OC[C@H]1O[C@@H](c2cn(-c3nccs3)nn2)[C@H](O)[C@@H](O)[C@H]1O observable=pKd value_observed=3.01
compound="OC[C@H]1O[C@@H](c2cn(-c3ccccc3F)nn2)[C@H](O)[C@@H](n2cc(-c3ccccc3)nn2)[C@H]1O [Compound 16a]" observable=pKd value_observed=3.55
compound=OC[C@H]1O[C@@H](c2cn(-c3ccc(C(F)(F)F)cc3)nn2)[C@H](O)[C@@H](O)[C@H]1O observable=pKd value_observed=2.89

P. CC(=O)c1ccc(-n2cc([C@@H]3O[C@H](CO)[C@H](O)[C@H](O)[C@H]3O)nn2)cc1
Q. O=[N+]([O-])c1ccc(-n2cc([C@@H]3O[C@H](CO)[C@H](O)[C@H](O)[C@H]3O)nn2)cc1
R. OC[C@H]1O[C@@H](Cn2cc(-c3ccccc3)nn2)[C@H](O)[C@@H](n2cc(-c3ccccc3)nn2)[C@H]1O [Compound 24c]
// sort entries: pKd, high to low A ranking is expressed here by listing the labels in the requested order. R, Q, P
(R: 3.85, Q: 3.40, P: 3.01)

I. CS(=O)(=O)c1ccc(-n2cc([C@@H]3O[C@H](CO)[C@H](O)[C@H](O)[C@H]3O)nn2)cc1
II. OC[C@H]1O[C@@H](c2cn(-c3ccc(Cl)c(Cl)c3)nn2)[C@H](O)[C@@H](O)[C@H]1O
III. OC[C@H]1O[C@@H](c2cn(-c3ccc(Br)cc3F)nn2)[C@H](O)[C@@H](O)[C@H]1O
Order by pKd, ascending. A ranking is expressed here by listing the labels in the requested order. II, I, III
(II: 2.89, I: 3.11, III: 3.51)

1. OC[C@H]1O[C@@H](c2cn(-c3cc(Cl)ccc3F)nn2)[C@H](O)[C@@H](O)[C@H]1O
2. OC[C@H]1O[C@@H](c2cn(-c3ccc(Cl)cc3F)nn2)[C@H](O)[C@@H](O)[C@H]1O
Hi there! Just curious which has the higher pKd between 1 and 2 . Label of pick, please. 2

====

target: galectin-3 (Homo sapiens, UniProt P17931); construct: made in house; test: competitive fluorescence polarization assay, galectin-3; details: Kd and SEM from 3–6 single point measurements, > values estimated, no apparent binding at highest concentration, read-out: Dissociation constants, Galectin-3
Sequence (P17931 whole entry): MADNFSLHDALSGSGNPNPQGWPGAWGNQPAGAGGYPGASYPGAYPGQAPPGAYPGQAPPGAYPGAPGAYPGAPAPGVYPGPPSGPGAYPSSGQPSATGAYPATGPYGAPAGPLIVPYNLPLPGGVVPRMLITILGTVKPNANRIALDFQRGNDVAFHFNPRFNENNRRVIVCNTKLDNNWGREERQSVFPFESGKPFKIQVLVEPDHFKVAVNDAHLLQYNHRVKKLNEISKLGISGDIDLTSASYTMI
observable: Kd (µM)

Take a look at these entries with their results.
compound="OC[C@H]1O[C@@H](c2cn(-c3cccc(C(F)(F)F)c3)nn2)[C@H](O)[C@@H](O)[C@H]1O [Compound 1h]" observable=Kd value_observed=1300
compound="OC[C@H]1O[C@@H](c2cn(-c3c(F)cccc3F)nn2)[C@H](O)[C@@H](O)[C@H]1O [Compound 1k]" observable=Kd value_observed=1200

A. O=[N+]([O-])c1cccc(-n2cc([C@@H]3O[C@H](CO)[C@H](O)[C@H](O)[C@H]3O)nn2)c1 [Compound 1j]
B. OC[C@H]1O[C@@H](c2cn(-c3cccc(Br)c3)nn2)[C@H](O)[C@@H](O)[C@H]1O [Compound 1d]
Compare A and B and name the one whose reported Kd is smaller. Label of pick, please. A

P. OC[C@H]1O[C@@H](c2cn(-c3cc(Cl)ccc3F)nn2)[C@H](O)[C@@H](O)[C@H]1O [Compound 1m]
Q. O=[N+]([O-])c1ccc(-n2cc([C@@H]3O[C@H](CO)[C@H](O)[C@H](O)[C@H]3O)nn2)cc1 [Compound 1i]
Hi there! Just curious which has the higher Kd between P and Q . Label of pick, please. Q

A. Cc1ccc(-n2cc([C@@H]3O[C@H](CO)[C@H](O)[C@H](O)[C@H]3O)nn2)cc1Cl [Compound 1q]
B. OC[C@H]1O[C@@H](c2cn(-c3ccc(-c4ccccc4)cc3)nn2)[C@H](O)[C@@H](O)[C@H]1O [Compound 1t]
Compare A and B and name the one whose reported Kd is smaller. Label of pick, please. A

I. OC[C@H]1O[C@@H](Cn2cc(-c3ccccc3)nn2)[C@H](O)[C@@H](n2cc(-c3ccccc3)nn2)[C@H]1O [Compound 24c]
II. OC[C@H]1O[C@@H](c2cn(-c3ccc(Cl)cc3F)nn2)[C@H](O)[C@@H](O)[C@H]1O [Compound 1l]
Compare I and II and name the one whose reported Kd is smaller. Label of pick, please. I
